- experiment.summary: Microsomal stability (phase I), mouse
- Type: in vitro ADME
- study.conditions: mouse liver microsomes, up to 60 minutes, 37 °C
- Description: Microsomal stability (phase I) assay. Metabolic stability under oxidative conditions was measured in liver microsomes from different time up to 50 minutes (HLM) or 60 minutes (MLM) at 37 °C. Based on the compound half-life t1/2, the in vitro intrinsic clearance CLint was calculated. […]
measured.quantity: microsomal CLint at 3 µM

Ask: What value of microsomal CLint at 3 µM has been recorded for this entry: C=CC(=O)Nc1cccc(-c2c(-c3ccc(N4CCN(C)CC4)cc3)[nH]c3ncnc(OC4CCCC4)c23)c1 [Compound 19f]
Reply: 128 µL/min/mg

Ask: Now the molecule C=CC(=O)Nc1cccc(-c2c(-c3ccc(N4CCN(C)CC4)cc3)[nH]c3ncnc(OCCCC)c23)c1 [Compound 19d]
Reply: 50 µL/min/mg

Ask: Can you check C=CC(=O)Nc1cccc(-c2c(-c3ccc(N4CCN(C)CC4)cc3)[nH]c3ncnc(OCC(C)C)c23)c1 [Compound 19h] next?
Reply: 46 µL/min/mg

Ask: Similarly, C=CC(=O)Nc1cccc(-c2c(-c3ccccc3)[nH]c3ncnc(OC)c23)c1 [Compound 1a] ?
Reply: 156 µL/min/mg

Ask: Also COc1ncnc2[nH]c(-c3ccc(C)cc3)c(-c3cccc(NC(=O)C=CCN(C)C)c3)c12 [Compound 10b] , if possible.
Reply: 26 µL/min/mg

Ask: Could you do the same for C=CC(=O)Nc1cc(-c2c(-c3ccc(N4CCN(C)CC4)cc3)[nH]c3ncnc(OC)c23)ccc1OC(C)COC (stereo not shown) [Compound 20b] , please?
Reply: 8 µL/min/mg

Ask: Input C=CC(=O)Nc1cccc(-c2c(-c3ccc(C)cc3)[nH]c3ncnc(OC)c23)c1 [Compound 10a]
Reply: 118 µL/min/mg

Ask: # iterate: C=CC(=O)Nc1cccc(-c2c(-c3ccc(N4CCN(C)CC4)cc3)[nH]c3ncn(C4CCCCC4)c(=O)c23)c1 [Compound 29j]
Reply: 30 µL/min/mg

Ask: What would you report for C=CC(=O)Nc1cccc(-c2c(-c3ccc(CN4CCN(C)CC4)cc3)[nH]c3ncnc(OC)c23)c1 [Compound 17a] ?
Reply: 26 µL/min/mg

Ask: Next molecule up: CN(C)C/C=C/C(=O)Nc1cc2c(Nc3ccc(F)c(Cl)c3)ncnc2cc1O[C@H]1CCOC1 [Afatinib, afatinib, reference compound]
Reply: 6 µL/min/mg

Ask: Check C=CC(=O)Nc1cccc(-c2c(-c3ccc(N4CCN(C)CC4)cc3)[nH]c3ncn(C(C)C)c(=O)c23)c1 [Compound 29g] too.
Reply: 8 µL/min/mg

Ask: Ok, now C=CC(=O)Nc1cccc(-c2c(-c3ccc(N4CCN(C)CC4)cc3)[nH]c3ncnc(OC(C)C)c23)c1 [Compound 19g]
Reply: 46 µL/min/mg

Ask: What do you have for C=CC(=O)Nc1cc(Nc2nccc(-c3cn(C)c4ccccc34)n2)c(OC)cc1N(C)CCN(C)C [Osimertinib, osimertinib, reference compound] ?
Reply: 60 µL/min/mg

Ask: And C=CC(=O)Nc1cccc(-c2c(-c3ccc(N4CCN(C)CC4)cc3)[nH]c3ncn(C4CCCC4)c(=O)c23)c1 [Compound 29i] ?
Reply: 84 µL/min/mg

Ask: Next molecule up: C=CC(=O)Nc1cccc(Oc2nc(Nc3ccc(N4CCN(C)CC4)cc3OC)ncc2Cl)c1 [WZ4002, reference compound]
Reply: 66 µL/min/mg

Ask: Consider next the molecule C=CC(=O)Nc1cccc(-c2c(-c3ccc(N4CCN(C)CC4)cc3)[nH]c3ncn(CC)c(=O)c23)c1 [Compound 29b] in the same way.
Reply: 4 µL/min/mg

---

- experiment.summary: Caco-2 assay
- Assay type: in vitro ADME
- study.conditions: human, Caco-2, pH 7.4; efflux ratio; read-out: Caco-2: ratio (BA) : (AB)
measured.quantity: efflux ratio at 2 h, 5 µM

Ask: Find the recorded efflux ratio at 2 h, 5 µM belonging to C=CC(=O)Nc1cccc(-c2c(-c3ccc(N4CCN(C)CC4)cc3)[nH]c3ncnc(OCC(C)C)c23)c1 [Compound 19h] and report it.
Reply: 3.1

---

- experimental.system: EGFR-L858R/T790M (Homo sapiens, UniProt P00533, L858R/T790M)
- Sequence (P00533 25-1210 T790M/L858R): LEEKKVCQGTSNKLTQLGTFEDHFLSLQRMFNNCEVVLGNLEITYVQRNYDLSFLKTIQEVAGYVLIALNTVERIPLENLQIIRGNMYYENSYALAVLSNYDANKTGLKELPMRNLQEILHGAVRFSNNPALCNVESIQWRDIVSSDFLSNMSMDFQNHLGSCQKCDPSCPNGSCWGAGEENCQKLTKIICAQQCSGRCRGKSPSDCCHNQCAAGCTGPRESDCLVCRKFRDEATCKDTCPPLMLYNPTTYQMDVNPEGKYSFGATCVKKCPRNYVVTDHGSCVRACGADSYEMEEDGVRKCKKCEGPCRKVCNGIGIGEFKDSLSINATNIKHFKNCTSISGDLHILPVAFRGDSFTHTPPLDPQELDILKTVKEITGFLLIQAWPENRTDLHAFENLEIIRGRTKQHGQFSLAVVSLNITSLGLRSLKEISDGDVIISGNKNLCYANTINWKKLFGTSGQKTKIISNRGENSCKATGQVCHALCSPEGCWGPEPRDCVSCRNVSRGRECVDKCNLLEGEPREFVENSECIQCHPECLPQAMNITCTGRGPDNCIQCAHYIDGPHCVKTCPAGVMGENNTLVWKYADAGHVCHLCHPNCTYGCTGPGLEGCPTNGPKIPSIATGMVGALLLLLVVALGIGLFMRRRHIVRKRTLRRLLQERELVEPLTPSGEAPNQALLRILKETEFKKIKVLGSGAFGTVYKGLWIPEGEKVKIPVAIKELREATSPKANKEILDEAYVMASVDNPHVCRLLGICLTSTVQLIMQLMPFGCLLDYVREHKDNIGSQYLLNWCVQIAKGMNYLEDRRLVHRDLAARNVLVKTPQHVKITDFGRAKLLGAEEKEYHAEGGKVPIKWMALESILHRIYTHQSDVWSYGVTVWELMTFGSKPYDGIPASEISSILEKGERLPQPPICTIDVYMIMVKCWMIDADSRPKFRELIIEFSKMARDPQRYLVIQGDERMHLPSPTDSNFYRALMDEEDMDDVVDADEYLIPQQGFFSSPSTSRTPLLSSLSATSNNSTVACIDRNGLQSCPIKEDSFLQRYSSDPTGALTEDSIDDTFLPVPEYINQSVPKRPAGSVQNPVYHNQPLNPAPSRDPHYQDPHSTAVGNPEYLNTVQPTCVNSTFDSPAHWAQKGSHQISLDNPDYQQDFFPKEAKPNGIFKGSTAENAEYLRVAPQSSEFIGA
- experiment.summary: HTRF KinEASE-TK activity-based assay, EGFR-L858R/T790M
- study.conditions: EGFR HTRF IC50 L858R/T790M, ATP at Km (4 µM), 30 min preincubation; mean ± SD of three independent measurements in duplicates
measured.quantity: pIC50
The meaning of pIC50 here: minus log10 of the concentration in molar units.

Ask: Given the entry C=CC(=O)Nc1cccc(-c2c(-c3ccc(N4CCN(C)CC4)cc3)[nH]c3ncnc(OCC)c23)c1 [Compound 19c] , report its measured pIC50.
Reply: 10.00

Ask: Lookup `CCC(=O)Nc1cccc(-c2c(-c3ccccc3)[nH]c3ncnc(OC)c23)c1`
Reply: 5.40

Ask: Then C=CC(=O)Nc1cccc(-c2c(-c3ccc(N4CCN(C)CC4)cc3)[nH]c3ncn(C(C)C)c(=O)c23)c1 [Compound 29g] ?
Reply: 9.00

Ask: Same again, this time with C=CC(=O)Nc1cccc(-c2c(-c3ccc(N4CCN(C)CC4)cc3)[nH]c3ncn(CC)c(=O)c23)c1 [Compound 29b]
Reply: 9.30

Ask: And then C=CC(=O)Nc1cccc(-c2c(-c3ccc(CN4CCN(C)CC4)cc3)[nH]c3ncnc(OC)c23)c1 [Compound 17a] , what is it?
Reply: 8.40

Ask: Repeat with CCC(=O)Nc1cccc(-c2c(-c3ccc(CN4CCN(C)CC4)cc3)[nH]c3ncnc(OC)c23)c1 [Compound 17b]
Reply: 6.52

Ask: # repeat for C=CC(=O)Nc1cccc(-c2c(-c3ccc(N4CCN(C)CC4)cc3)[nH]c3ncn(CCCSC)c(=O)c23)c1 [Compound 29f]
Reply: 7.70

Ask: Field entry: C=CC(=O)Nc1cccc(-c2c(-c3ccc(N4CCN(C)CC4)cc3)[nH]c3ncn(CCCC)c(=O)c23)c1 [Compound 29d]
Reply: 8.35

Ask: Then this molecule: C=CC(=O)Nc1cccc(-c2c(-c3ccc(N4CCN(C)CC4)cc3)[nH]c3nc[nH]c(=O)c23)c1 [Compound 19i]
Reply: 7.62

Ask: Proceed to C=CC(=O)Nc1cc(-c2c(-c3ccc(N4CCN(C)CC4)cc3)[nH]c3ncnc(OC)c23)ccc1OC(C)COC (stereo not shown) [Compound 20b]
Reply: 10.00

Ask: How about this molecule: COc1ncnc2[nH]c(-c3ccc(C)cc3)c(-c3cccc(NC(=O)C=CCN(C)C)c3)c12 [Compound 10b]
Reply: 7.59

Ask: What do you have for `C=CC(=O)Nc1cccc(-c2c(-c3ccccc3)[nH]c3ncnc(OC)c23)c1` ?
Reply: 6.75

Ask: Same lookup for C=CC(=O)Nc1cccc(-c2c(-c3ccc(N4CCN(C)CC4)cc3)[nH]c3ncn(CCSC)c(=O)c23)c1 [Compound 29e] , please.
Reply: 9.05

Ask: Please do the same for C=CC(=O)Nc1cccc(-c2c(-c3ccc(N4CCN(C)CC4)cc3)[nH]c3ncn(C4CCCCC4)c(=O)c23)c1 [Compound 29j] as well.
Reply: 9.40

Ask: Then what about the molecule C=CC(=O)Nc1cccc(-c2c(-c3ccc(N4CCN(C)CC4)cc3)[nH]c3ncnc(OCCCSC)c23)c1 [Compound 19e] ?
Reply: 10.00

Ask: Try this molecule too: C=CC(=O)Nc1cccc(-c2c(-c3ccc(N4CCN(C)CC4)cc3)[nH]c3ncnc(OC(C)C)c23)c1 [Compound 19g]
Reply: 10.00

Ask: Would you mind doing C#CCn1cnc2[nH]c(-c3ccc(N4CCN(C)CC4)cc3)c(-c3cccc(NC(=O)C=C)c3)c2c1=O [Compound 29c] as well?
Reply: 8.31

Ask: And C=CC(=O)Nc1cccc(-c2c(-c3ccc(N4CCN(C)CC4)cc3)[nH]c3ncnc(OC)c23)c1 [Compound 19a] ?
Reply: 9.70

Ask: Likewise for CCC(=O)Nc1cccc(-c2c(-c3ccc(N4CCN(C)CC4)cc3)[nH]c3ncn(C)c(=O)c23)c1 [Compound 19b] ?
Reply: 6.52

Ask: How about C=CC(=O)Nc1cccc(-c2c(-c3ccc(N4CCN(C)CC4)cc3)[nH]c3ncn(C)c(=O)c23)c1 [Compound 29a] ?
Reply: 9.30

Ask: Now the same for COc1ncnc2[nH]c(-c3ccc(C)cc3)c(-c3cccc(NC(=O)C=CCN4CCCCC4)c3)c12 [Compound 10c]
Reply: 6.80

---

- Test system: A431 cells (EGFR wild type)
- experiment.summary: CellTiter-Glo viability assay, A431
- study.conditions: Homo sapiens, A-431, 96 h, read-out: EGFR CTG EC50 A431, A431, 96 hours, CellTiter-Glo
Class (by EC50) -- range 1 (below 1000 nM), range 2 (1000 nM to below 2000 nM), range 3 (2000 nM or more)

Ask: Which category does the recorded EC50 put C=CC(=O)Nc1cccc(Oc2nc(Nc3ccc(N4CCN(C)CC4)cc3OC)ncc2Cl)c1 [WZ4002, reference compound] in?
Reply: range 3

Ask: Let us now turn to Cc1cc(C(=O)Nc2nc3cccc(Cl)c3n2[C@@H]2CCCCN(C(=O)/C=C/CN(C)C)C2)ccn1 [EGF816, nazartinib, reference compound]
Reply: range 3

Ask: And what about the molecule C=CC(=O)Nc1cccc(-c2c(-c3ccc(N4CCN(C)CC4)cc3)[nH]c3ncnc(OCCCSC)c23)c1 [Compound 19e] ?
Reply: range 3

Ask: Request: C=CC(=O)Nc1cccc(-c2c(-c3ccc(N4CCN(C)CC4)cc3)[nH]c3ncn(CC(C)C)c(=O)c23)c1 [Compound 29h]
Reply: range 2

Ask: Again, but for C=CC(=O)Nc1cccc(-c2c(-c3ccc(N4CCN(C)CC4)cc3)[nH]c3ncn(C4CCCC4)c(=O)c23)c1 [Compound 29i]
Reply: range 1

Ask: Would you mind doing COc1ncnc2[nH]c(-c3ccc(C)cc3)c(-c3cccc(NC(=O)C=CCN(C)C)c3)c12 [Compound 10b] as well?
Reply: range 3

Ask: Same for CCC(=O)Nc1cccc(-c2c(-c3ccc(CN4CCN(C)CC4)cc3)[nH]c3ncnc(OC)c23)c1 [Compound 17b]
Reply: range 3

Ask: Also C=CC(=O)Nc1cccc(-c2c(-c3ccc(N4CCN(C)CC4)cc3)[nH]c3ncn(CC)c(=O)c23)c1 [Compound 29b] ?
Reply: range 1

Ask: Then C=CC(=O)Nc1cccc(-c2c(-c3ccc(N4CCN(C)CC4)cc3)[nH]c3ncn(CC4CC4)c(=O)c23)c1 [Compound 29k] ?
Reply: range 1

Ask: Follow-up entry: C=CC(=O)Nc1cc(-c2c(-c3ccc(N4CCN(C)CC4)cc3)[nH]c3ncnc(OC)c23)ccc1OC(C)COC (centres unmarked) [Compound 20b]
Reply: range 2

Ask: // next record `C=CC(=O)Nc1cccc(-c2c(-c3ccccc3)[nH]c3ncnc(OC)c23)c1`
Reply: range 3

Ask: Ok, now C=CC(=O)Nc1cccc(-c2c(-c3ccc(N4CCN(C)CC4)cc3)[nH]c3ncnc(OC)c23)c1 [Compound 19a]
Reply: range 1

Ask: Subsequent entry: C=CC(=O)Nc1cccc(Nc2nc(Nc3ccc(N4CCN(C(C)=O)CC4)cc3OC)ncc2C(F)(F)F)c1 [Rociletinib, rociletinib, reference compound]
Reply: range 2

Ask: // query: C=CC(=O)Nc1cccc(-c2c(-c3ccc(N4CCN(C)CC4)cc3)[nH]c3ncnc(OC(C)C)c23)c1 [Compound 19g]
Reply: range 1

Ask: Ok, now C=CC(=O)Nc1cccc(-c2c(-c3ccc(N4CCN(C)CC4)cc3)[nH]c3ncn(Cc4ccccc4)c(=O)c23)c1 [Compound 29l]
Reply: range 2

Ask: Also check COc1ncnc2[nH]c(-c3ccc(C)cc3)c(-c3cccc(NC(=O)C=CCN4CCCCC4)c3)c12 [Compound 10c]
Reply: range 3

Ask: Now the molecule C=CC(=O)Nc1cccc(-c2c(-c3ccc(N4CCN(C)CC4)cc3)[nH]c3ncn(C4CCCCC4)c(=O)c23)c1 [Compound 29j]
Reply: range 2
